Entry source: patent US7615567B2

# study system: α4β2 nAChRs (Rattus norvegicus, UniProt P09483+P12390)
# Sequence (P09483 31-630): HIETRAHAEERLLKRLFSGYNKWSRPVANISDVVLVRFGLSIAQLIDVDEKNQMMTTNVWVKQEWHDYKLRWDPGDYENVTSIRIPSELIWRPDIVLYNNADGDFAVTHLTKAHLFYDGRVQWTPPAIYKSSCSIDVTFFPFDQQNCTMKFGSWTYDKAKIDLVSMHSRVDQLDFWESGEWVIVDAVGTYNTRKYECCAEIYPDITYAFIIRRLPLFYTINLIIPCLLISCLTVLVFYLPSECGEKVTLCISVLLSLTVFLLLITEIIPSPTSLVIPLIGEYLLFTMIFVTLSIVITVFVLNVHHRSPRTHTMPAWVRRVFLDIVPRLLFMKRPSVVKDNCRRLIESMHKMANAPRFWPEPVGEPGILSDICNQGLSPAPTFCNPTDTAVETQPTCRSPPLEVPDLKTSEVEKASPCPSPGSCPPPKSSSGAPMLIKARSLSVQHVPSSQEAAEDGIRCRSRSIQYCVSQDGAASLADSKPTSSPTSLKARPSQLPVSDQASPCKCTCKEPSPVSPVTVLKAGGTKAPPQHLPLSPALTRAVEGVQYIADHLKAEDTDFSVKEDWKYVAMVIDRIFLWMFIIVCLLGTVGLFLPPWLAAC
# Sequence (P12390 25-500): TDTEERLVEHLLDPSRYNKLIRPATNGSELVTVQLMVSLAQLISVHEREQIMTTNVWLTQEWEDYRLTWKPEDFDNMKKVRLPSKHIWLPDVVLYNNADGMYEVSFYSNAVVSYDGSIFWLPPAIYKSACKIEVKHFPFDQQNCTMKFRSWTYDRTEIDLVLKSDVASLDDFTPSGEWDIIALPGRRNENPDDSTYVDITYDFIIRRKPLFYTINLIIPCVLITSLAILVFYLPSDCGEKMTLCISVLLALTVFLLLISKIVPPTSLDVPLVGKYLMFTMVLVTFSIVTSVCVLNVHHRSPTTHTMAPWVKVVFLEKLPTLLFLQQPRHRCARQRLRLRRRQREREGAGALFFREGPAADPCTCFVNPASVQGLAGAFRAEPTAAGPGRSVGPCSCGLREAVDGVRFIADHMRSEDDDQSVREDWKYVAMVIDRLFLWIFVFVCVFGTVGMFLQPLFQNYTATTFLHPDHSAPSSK
# procedure details: biochemical
# Format: binding
# measurement setup: Table 1; [3H]epibatidine binding, rat cerebral cortex
reported property: Hill Slope
Answer with the value's number alone.

Worked cases, Hill Slope given:
[[record]]
compound = "Clc1cc(C2CC3CCC2N3)cnc1Cl (centres unmarked)"
study_system = "α4β2 nAChRs (Rattus norvegicus, UniProt P09483+P12390)"
readout_value = 0.87

[[record]]
compound = "Fc1cc(C2CC3CCC2N3)cnc1F (centres unmarked)"
study_system = "α4β2 nAChRs (Rattus norvegicus, UniProt P09483+P12390)"
readout_value = 1.0

[[record]]
compound = "COc1cccc(-c2cc(C3CC4CCC3N4)cnc2Cl)c1 (centres unmarked)"
study_system = "α4β2 nAChRs (Rattus norvegicus, UniProt P09483+P12390)"
readout_value = 0.8

[[record]]
compound = "Fc1cncc(C2CC3CCC2N3)c1 (centres unmarked)"
study_system = "α4β2 nAChRs (Rattus norvegicus, UniProt P09483+P12390)"
readout_value = 0.9


Fill in: Hill Slope of Clc1ncc(C2CC3CCC2N3)cc1I (centres unmarked) is ___
0.83

Do the same for Fc1ncc(C2CC3CCC2N3)cc1-c1ccccc1 (centres unmarked) please
1.1

Do the same for CN(C)c1ccc(C2CC3CCC2N3)cn1 (centres unmarked) please
1.0

Do the same for Nc1ncc(C2CC3CCC2N3)cc1-c1ccccc1 (centres unmarked) please
0.93
